# Test system: multi-drug resistant (Dd2) strain of Plasmodium falciparum
# assay_method_text: In vitro antimalarial MSF (SyBrGreen I fluorescence) assay, Dd2 strain
# Type: cell-based
# particulars: Table 2, 72 hrs, average of at least 3 experiments
// pIC50 lookup, one value per entry
API: returns pIC50 as number; meaning -log10 of concentration in mol/L.

Before answering, review these 3 worked examples.
COc1ccc2c(=O)c3ccc(Cl)cc3[nH]c2c1 [compound 13]: 6.72
Nc1c2ccc(Cl)cc2nc2cc(OCCCCCC(F)(F)F)ccc12 [compound 32]: 8.00
O=C1c2ccc(OCCCCCC(F)(F)F)cc2C(=O)c2ccc(O)cc21 [compound 15]: 7.27

GET /values?readout=pIC50&item= O=c1c2ccccc2[nH]c2cc(OCCCCCC(F)(F)F)ccc12 [compound 26]
10.82

Need pIC50 of O=c1c2ccccc2[nH]c2c(OCCCCCC(F)(F)F)cccc12 [compound 27] , thanks.
6.29

Look up pIC50 for this compound: O=c1c2ccc(Cl)cc2[nH]c2cc(OCCCCCC(F)(F)F)ccc12 [compound 21]
10.15

Fill blank: measured pIC50 of the compound O=c1c2ccccc2[nH]c2cc(OCCCCC(F)(F)F)ccc12 [compound 20] is ____.
9.52

What pIC50 value was documented for this compound, O=c1c2ccc(O)cc2oc2cc(OCCCCCC(F)(F)F)ccc12 [compound 11] ?
7.40

Reported pIC50 for O=c1c2ccc(Cl)cc2[nH]c2cc(OCCCCC(F)(F)F)ccc12 [compound 18] : what is it?
9.30

Given Cn1c2cc(Cl)ccc2c(=O)c2ccc(OCCCCC(F)(F)F)cc21 [compound 31] , state its recorded pIC50.
5.46

Suppose we examine the compound O=C1C=C(OCCCCC(F)(F)F)C(=O)c2ccccc21 [compound 35] ; what pIC50 value has been reported?
7.46

Give the measured pIC50 of O=c1c2ccc(Cl)cc2[nH]c2ccc(OCCCCCC(F)(F)F)cc12 [compound 22] .
7.82

Which pIC50 is reported for this compound? O=c1c2ccc(Cl)cc2[nH]c2ccc(OCCCCCBr)cc12 [compound 10]
6.82

Fill blank: measured pIC50 of the compound O=c1c2ccc(Cl)cc2oc2cc(OCCCCC(F)(F)F)ccc12 [compound 19] is ____.
4.74

# input compound: O=c1c2ccc(Cl)cc2[nH]c2ccc(O)cc12 [compound 8] ; wanted: its pIC50
6.59

Which pIC50 is reported for this compound? C=CC1CN2CCC1CC2C(O)c1ccnc2ccc(OC)cc12 (stereo not shown) [compound 37]
7.17

Suppose we examine the compound COc1ccc2[nH]c3cc(Cl)ccc3c(=O)c2c1 [compound 7] ; what pIC50 value has been reported?
7.19

Query (compound): O=c1c2ccc(O)cc2[nH]c2cc(Cl)ccc12 [compound 14] ; field requested: pIC50
5.04

Consider the compound shown here: O=c1c2ccc(Cl)cc2[nH]c2cc(OCCCCC(F)(F)C(F)(F)F)ccc12 [compound 23] What is its recorded pIC50?
10.70
